Measured IC50 accompanies every entry in the list below.
ASSAYED_TARGET: Toll-like receptor 7 (Homo sapiens)
ASSAY: Inhibition of the Activation Assay: As human TLR7 expressing cell line, HEK293 cell line was bought from IMGENEX Corporation (TLR7/NF-ηB/SEAPorter™ HEK293 cell), which is human embryonic kidney cell line and stably expresses full-length human TLR7 gene and secreted alkaline phosphatase (SEAP) reporter gene under the transcriptional control of an NE-ηB response element. The TLR7/NF-ηB/SEAPorter™ HEK293 cell was cultivated with DMEM containing 10% fetal bovine serum (FBS) and 10 μg/mL blasticidin S at 37° C. in the presence of 5% CO2.
# output: bare number, implied unit nM

Known IC50 results, listed for orientation:
>  <COMPOUND>
CCOc1nc(N)c2nc(-c3cncc(F)c3)n(Cc3ccc(OCCN(C)C)cc3)c2n1

>  <ASSAYED_TARGET>
Toll-like receptor 7 (Homo sapiens)

>  <ASSAY_VALUE>
99

$$$$
>  <COMPOUND>
CCOc1nc(N)c2nc(-c3cncc(F)c3)n(Cc3cccc(OCCN(C)C)n3)c2n1

>  <ASSAYED_TARGET>
Toll-like receptor 7 (Homo sapiens)

>  <ASSAY_VALUE>
1430

$$$$
>  <COMPOUND>
CCOc1nc(N)c2nc(-c3cncc(F)c3)n(Cc3ccc(CN4CCN5CCC4C5)cc3)c2n1 (configuration not stated)

>  <ASSAYED_TARGET>
Toll-like receptor 7 (Homo sapiens)

>  <ASSAY_VALUE>
51

$$$$
>  <COMPOUND>
CCOc1nc(N)c2nc(-c3cncc(F)c3)n(Cc3ccc(OCCCN(C)C)cc3)c2n1

>  <ASSAYED_TARGET>
Toll-like receptor 7 (Homo sapiens)

>  <ASSAY_VALUE>
89

$$$$
>  <COMPOUND>
CCOc1nc(N)c2nc(-c3cncc(F)c3)n(Cc3ccnc(OCCN(C)C)c3)c2n1

>  <ASSAYED_TARGET>
Toll-like receptor 7 (Homo sapiens)

>  <ASSAY_VALUE>
1800

$$$$
>  <COMPOUND>
CCOc1nc(N)c2nc(-c3cncc(F)c3)n(Cc3ccc(F)c(OCCN4CCCC4)c3)c2n1

>  <ASSAYED_TARGET>
Toll-like receptor 7 (Homo sapiens)

>  <ASSAY_VALUE>
620

$$$$

# return recorded IC50 for input `CCOc1nc(N)c2nc(-c3cncc(F)c3)n(Cc3cc(OCCN(C)C)ccn3)c2n1`
5800

###

ASSAYED_TARGET: Toll-like receptor 7 (Homo sapiens, UniProt Q9NYK1)
Sequence (Q9NYK1 whole entry): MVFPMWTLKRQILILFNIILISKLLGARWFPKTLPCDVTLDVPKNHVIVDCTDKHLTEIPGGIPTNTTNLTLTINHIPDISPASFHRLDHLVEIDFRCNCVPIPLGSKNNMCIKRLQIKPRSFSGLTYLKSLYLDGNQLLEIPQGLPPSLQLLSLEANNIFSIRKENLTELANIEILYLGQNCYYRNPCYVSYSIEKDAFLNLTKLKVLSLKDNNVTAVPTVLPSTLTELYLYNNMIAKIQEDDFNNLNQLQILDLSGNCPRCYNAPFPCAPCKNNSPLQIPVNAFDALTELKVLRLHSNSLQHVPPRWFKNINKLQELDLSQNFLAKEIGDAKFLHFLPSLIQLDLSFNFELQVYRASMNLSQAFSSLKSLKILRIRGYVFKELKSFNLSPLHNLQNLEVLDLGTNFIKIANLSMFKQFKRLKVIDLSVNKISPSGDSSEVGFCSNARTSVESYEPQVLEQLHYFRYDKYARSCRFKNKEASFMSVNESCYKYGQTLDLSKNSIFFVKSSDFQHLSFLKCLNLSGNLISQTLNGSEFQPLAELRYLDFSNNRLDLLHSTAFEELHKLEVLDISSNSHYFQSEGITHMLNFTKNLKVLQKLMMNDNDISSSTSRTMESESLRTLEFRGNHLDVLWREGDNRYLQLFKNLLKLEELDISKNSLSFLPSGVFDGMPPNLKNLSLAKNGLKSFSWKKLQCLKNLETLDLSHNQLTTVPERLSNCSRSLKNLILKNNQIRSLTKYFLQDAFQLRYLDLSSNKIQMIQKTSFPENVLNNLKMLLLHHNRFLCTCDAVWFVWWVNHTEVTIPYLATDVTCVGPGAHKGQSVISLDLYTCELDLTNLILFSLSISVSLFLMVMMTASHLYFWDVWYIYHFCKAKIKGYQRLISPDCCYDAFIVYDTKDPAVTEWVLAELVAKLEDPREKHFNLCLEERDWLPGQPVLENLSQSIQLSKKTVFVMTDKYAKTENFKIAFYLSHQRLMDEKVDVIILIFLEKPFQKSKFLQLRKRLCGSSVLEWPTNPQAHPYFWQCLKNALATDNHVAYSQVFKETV
ASSAY: Inhibition of the Activation Assay: As human TLR7 expressing cell line, HEK293 cell line was bought from IMGENEX Corporation (TLR7/NF-ηB/SEAPorter™ HEK293 cell), which is human embryonic kidney cell line and stably expresses full-length human TLR7 gene and secreted alkaline phosphatase (SEAP) reporter gene under the transcriptional control of an NE-ηB response element. The TLR7/NF-ηB/SEAPorter™ HEK293 cell was cultivated with DMEM containing 10% fetal bovine serum (FBS) and 10 μg/mL blasticidin S at 37° C. in the presence of 5% CO2.
Checkbox rule: IC50 lower than 200 nM = class 1; IC50 not lower than 200 nM = class 0.

>  <COMPOUND>
CCCCOc1nc(N)c2nc(-c3cccc(CN4CCOCC4)c3)n(Cc3ccccc3)c2n1

>  <ASSIGNED_CLASS>
class 0

$$$$

Query compound follows.
Record `CCOc1nc(N)c2nc(-c3cncc(F)c3)n(Cc3cccc(OCCCN(C)C)c3)c2n1` : is its IC50 strictly below 200 nM?
class 1
